Hello, the source for this data is ChEMBL document CHEMBL1201862, in case you need it.

# SYSTEM TESTED: Nonstructural protein 1 (Influenza A virus, UniProt Q194T2)
# Sequence (Q194T2 whole entry): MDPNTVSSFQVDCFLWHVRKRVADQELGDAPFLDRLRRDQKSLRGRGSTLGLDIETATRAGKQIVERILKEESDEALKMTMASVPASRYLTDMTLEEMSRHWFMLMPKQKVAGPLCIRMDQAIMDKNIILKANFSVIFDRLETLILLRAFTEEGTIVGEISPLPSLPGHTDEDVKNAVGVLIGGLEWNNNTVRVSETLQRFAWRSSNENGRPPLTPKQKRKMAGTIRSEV
# Type: functional, Influenza A virus (A/California/07/2009(H1N1))
Active and inactive are the calls of the source.

ITEM SMILES | IC50
C=CCN1/C(=C/c2ccc3cc(C)ccc3[n+]2CC)C=Cc2ccccc21 | 11.7 µM (active)
CN(C)c1ccc(N=Nc2ccccc2C(=O)OCC(=O)N(C)c2ccccc2)cc1 | 21.2 µM (active)
CC(C)(C)Nc1c([N+](=O)[O-])ccc2c1=NC1(CCCCC1)[N+]=2[O-] | 18.1 µM (active)
CNc1nc(NN)nc(Nc2ccccc2)n1 | 15 µM (active)
C/C(=N\NC(=O)c1cccc2ccccc12)c1ccccn1 | 7.25 µM (active)
CCCCNc1c([N+](=O)[O-])cc(C)cc1[N+](=O)[O-] | 27.1 µM (active)
Cc1ccc(NC2=C/C(=N\S(=O)(=O)c3cccs3)c3ccccc3C2=O)c(C)c1 | 6.48 µM (active)
O=[N+]([O-])c1cc2no[n+]([O-])c2cc1N1CCCCC1 | 31.7 µM (active)
CN1C(=O)/C(=C\c2cc(N=Nc3ccccc3)ccc2O)SC1=S | 4.51 µM (active)
COc1ccc(S(=O)(=O)N2CCOCC2)cc1N=Nc1sc(N)nc1-c1ccccc1 | > 100 µM (active)
Cc1ccc2nc(N(CCCN(C)C)C(=O)c3ccc(S(=O)(=O)N4CCc5ccccc5C4)cc3)sc2c1 | > 50 µM (active)

====

# SYSTEM TESTED: Carboxy-terminal domain RNA polymerase II polypeptide A small phosphatase 1 (Homo sapiens, UniProt Q9GZU7)
# Sequence (Q9GZU7 whole entry): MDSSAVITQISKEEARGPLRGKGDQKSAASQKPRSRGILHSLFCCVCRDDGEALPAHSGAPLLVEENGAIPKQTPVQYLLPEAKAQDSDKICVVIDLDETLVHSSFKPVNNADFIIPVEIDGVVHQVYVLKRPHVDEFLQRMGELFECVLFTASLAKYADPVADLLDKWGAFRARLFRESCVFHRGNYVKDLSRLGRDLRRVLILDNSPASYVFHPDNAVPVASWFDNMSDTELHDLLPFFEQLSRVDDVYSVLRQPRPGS
# EXPERIMENT SUMMARY: inhibitors of CTDSP1, concentration-response testing, biochemical assay, absorbance-based, actives from ultra-high-throughput screening (AID 540297)
# Type: functional
The source made the active and inactive calls.

COMPOUND | IC50
Cc1ccc2[nH]c(/C(C#N)=C\c3ccc(Oc4ccc(C(F)(F)F)cc4[N+](=O)[O-])cc3)nc2c1 | 2.42 µM (active)
CC(C)(C)c1ccc2c(c1)OC(C(=O)N/N=C/c1ccc([N+](=O)[O-])o1)CO2 (configuration not stated) | 5.41 µM (active)
O=C(O)c1cccc(-n2cccc2/C=N/O)c1 | 3.09 µM (active)
Cc1c(Cl)cnc(NC(=O)COC(=O)c2ccc(S(=O)(=O)NCc3ccco3)cc2)c1Cl | 8.67 µM (active)
Cc1cccc(NC(=O)Cn2c(O)c(N=NC(=O)c3ccccc3O)c3ccccc32)c1 | 1.99 µM (active)
O=C(O)/C(=C/c1ccco1)NC(=O)c1ccccc1 | 6.04 µM (active)
Cc1c(CC(=O)O)c(=O)oc2c(C)c(OCc3ccccc3Br)ccc12 | 3.92 µM (active)

====

Please consider the recorded AC50 for Cytochrome P450 3A4 (Homo sapiens, UniProt P08684) in what follows.
PARAMETER: AC50

ITEM SMILES | SYSTEM TESTED | RESULT VALUE
O=C(OCc1ccc(Cl)cc1)c1ccccc1C(=O)c1ccccc1 | Cytochrome P450 3A4 (Homo sapiens, UniProt P08684) | 17.8 µM (inconclusive)
CCOC(=O)CSc1cc(=O)n(C)c2cc(Cl)ccc12 | Cytochrome P450 3A4 (Homo sapiens, UniProt P08684) | 22.4 µM (inconclusive)
CC(=O)NCCNc1nc(-c2ccc(N(C)C)cc2)nc2ccccc12 | Cytochrome P450 3A4 (Homo sapiens, UniProt P08684) | 10 µM (inconclusive)
COc1ccc(NC(=O)c2cc(-c3ccccc3Cl)no2)cc1 | Cytochrome P450 3A4 (Homo sapiens, UniProt P08684) | 20 µM (inconclusive)
COc1ccc(COC(=O)N/N=C2/C[C@@H](O)[C@@H](O)[C@@H]3[C@H]4C(=O)N(c5ccc(F)cc5F)C(=O)[C@@H]4CC[C@H]23)cc1 | Cytochrome P450 3A4 (Homo sapiens, UniProt P08684) | 6.31 µM (inconclusive)

====

# SYSTEM TESTED: Cytochrome P450 2D6 (Homo sapiens);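 further: CYP2D6 member of a cytochrome P450 panel assay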
# Sequence (P10635 whole entry): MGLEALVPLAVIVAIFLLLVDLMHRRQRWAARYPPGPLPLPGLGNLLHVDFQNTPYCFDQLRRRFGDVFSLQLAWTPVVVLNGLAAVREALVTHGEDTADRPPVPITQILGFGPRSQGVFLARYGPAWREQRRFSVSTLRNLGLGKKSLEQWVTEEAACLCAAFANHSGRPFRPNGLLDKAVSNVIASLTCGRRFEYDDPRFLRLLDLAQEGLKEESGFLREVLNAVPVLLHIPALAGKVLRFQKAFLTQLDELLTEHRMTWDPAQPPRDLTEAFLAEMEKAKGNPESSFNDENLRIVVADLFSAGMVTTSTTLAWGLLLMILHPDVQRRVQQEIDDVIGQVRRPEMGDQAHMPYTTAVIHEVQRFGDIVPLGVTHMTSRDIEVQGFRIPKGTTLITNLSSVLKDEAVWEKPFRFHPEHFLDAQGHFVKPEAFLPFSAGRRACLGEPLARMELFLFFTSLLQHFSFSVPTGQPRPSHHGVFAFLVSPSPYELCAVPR

MOLECULE | AC50
O=C1CCCN1c1ccc(S(=O)(=O)Oc2cccc(Cl)c2)cc1[N+](=O)[O-] | 1.78 µM (inconclusive)
CCC(=O)c1ccc(OCC(O)CN2CCCCC2)cc1.Cl (stereo not given) | 39.8 µM (inconclusive)
COc1ccc(-c2nc3cnc(N4CCN(C)CC4)nc3n(CCc3ccccc3)c2=O)cc1 | 25.1 µM (inconclusive)
CN1CCN(C(=O)c2ccc(-n3cccc3)cc2)CC1 | 15.8 µM (inconclusive)
Cc1n[nH]c(SC(C(=O)c2ccccc2)c2ccccc2)n1 (stereo not given) | 20 µM (inconclusive)
C/C(CCN1CCCCc2nc(C)c(C)cc21)=N\O[C@@H](C)CN1CCCCc2nc(C)c(C)cc21 | 5.01 µM (inconclusive)
CN(Cc1cc(C(C)(C)C)cc(Br)c1O)Cc1cc(C(C)(C)C)cc(Br)c1O | 2.51 µM (inconclusive)
COc1ccc(Oc2ncc3nc(C)c(=O)n(-c4ccccc4)c3n2)cc1 | 39.8 µM (inconclusive)
O=C(Nc1cnc2ccccc2c1)c1cccc(-n2cnnn2)c1 | 7.94 µM (inconclusive)
C[C@@H]1CC[C@H]2C(=O)O[C@H](CN=[N+]=[N-])CN2[C@@H]1c1ccc(Br)cc1 | 7.94 µM (inconclusive)

====

Reported IC50 values for the following compounds.
# SYSTEM TESTED: Caspase-3 (Homo sapiens, UniProt P42574);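 further: Dose-response selectivity test against caspase-3 for candidate inhibitors of sentrin-specific proteases (SENPs)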
# Sequence (P42574 whole entry): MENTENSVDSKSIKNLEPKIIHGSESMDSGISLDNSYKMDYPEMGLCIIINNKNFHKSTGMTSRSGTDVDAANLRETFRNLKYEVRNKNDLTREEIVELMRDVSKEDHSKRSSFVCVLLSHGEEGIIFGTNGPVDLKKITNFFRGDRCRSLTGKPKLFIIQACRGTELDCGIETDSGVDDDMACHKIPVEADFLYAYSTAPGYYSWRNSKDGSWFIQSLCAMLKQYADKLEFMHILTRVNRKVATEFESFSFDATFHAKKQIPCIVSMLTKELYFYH
# Assay type: functional
The source made the active and inactive calls.
PARAMETER: IC50

ITEM SMILES | RESULT VALUE
COC(=O)Nc1nnc(-c2ccccc2Cl)s1 | 5.86 µM (active)
CCSc1nsc(NC(=O)Nc2ccc(F)cc2F)n1 | 39.5 µM (active)
COc1ccc(C(=O)COC(=O)c2n[nH]c3ccccc23)c(OC)c1 | 33 µM (active)
COc1ccc(C(N)=NOC(=O)Cc2cccs2)cc1 | 32 µM (active)

====

# SYSTEM TESTED: Cytochrome P450 2C19 (Homo sapiens)
# Sequence (P33261 whole entry): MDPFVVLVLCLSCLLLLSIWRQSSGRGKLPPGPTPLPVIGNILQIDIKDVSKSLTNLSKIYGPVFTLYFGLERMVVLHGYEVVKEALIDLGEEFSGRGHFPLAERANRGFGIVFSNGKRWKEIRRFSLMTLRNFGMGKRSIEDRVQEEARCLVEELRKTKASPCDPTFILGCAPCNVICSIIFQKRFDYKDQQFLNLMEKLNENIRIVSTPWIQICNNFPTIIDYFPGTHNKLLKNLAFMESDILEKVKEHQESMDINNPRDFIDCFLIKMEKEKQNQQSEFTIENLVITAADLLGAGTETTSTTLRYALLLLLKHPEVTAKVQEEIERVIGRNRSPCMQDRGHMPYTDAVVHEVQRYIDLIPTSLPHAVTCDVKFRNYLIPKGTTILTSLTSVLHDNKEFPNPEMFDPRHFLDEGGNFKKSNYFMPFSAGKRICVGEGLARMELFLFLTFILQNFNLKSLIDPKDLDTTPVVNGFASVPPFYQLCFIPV
# EXPERIMENT SUMMARY: Cytochrome panel assay with activity outcomes. Panel member name: p450-cyp2c19 Compounds with AC50 equal or less than 10 uM are considered active
# Type: functional
# MEASUREMENT SETUP: read-out: AC50
PARAMETER: AC50

COMPOUND | RESULT VALUE
CN(C)c1nc(-c2ccoc2)nc2ccccc12 | 31.6 µM (inconclusive)
COc1ccc(NC(=O)c2cc(-c3ccccc3Cl)no2)cc1 | 2.82 µM (inconclusive)
COc1ccc(Oc2ncc3nc(C)c(=O)n(-c4ccccc4)c3n2)cc1 | 39.8 µM (inconclusive)
Cn1c(CCC(=O)Nc2ccc(N3CCOCC3)cc2)nc(=O)c2ccccc21 | 35.5 µM (inconclusive)
CCN=C(S)NC1CC2CCCC(C1)N2Cc1ccco1 (stereo not given) | 14.1 µM (inconclusive)

====

# SYSTEM TESTED: Rac GTPase-activating protein 1 (Homo sapiens)
# Sequence (Q9H0H5 whole entry): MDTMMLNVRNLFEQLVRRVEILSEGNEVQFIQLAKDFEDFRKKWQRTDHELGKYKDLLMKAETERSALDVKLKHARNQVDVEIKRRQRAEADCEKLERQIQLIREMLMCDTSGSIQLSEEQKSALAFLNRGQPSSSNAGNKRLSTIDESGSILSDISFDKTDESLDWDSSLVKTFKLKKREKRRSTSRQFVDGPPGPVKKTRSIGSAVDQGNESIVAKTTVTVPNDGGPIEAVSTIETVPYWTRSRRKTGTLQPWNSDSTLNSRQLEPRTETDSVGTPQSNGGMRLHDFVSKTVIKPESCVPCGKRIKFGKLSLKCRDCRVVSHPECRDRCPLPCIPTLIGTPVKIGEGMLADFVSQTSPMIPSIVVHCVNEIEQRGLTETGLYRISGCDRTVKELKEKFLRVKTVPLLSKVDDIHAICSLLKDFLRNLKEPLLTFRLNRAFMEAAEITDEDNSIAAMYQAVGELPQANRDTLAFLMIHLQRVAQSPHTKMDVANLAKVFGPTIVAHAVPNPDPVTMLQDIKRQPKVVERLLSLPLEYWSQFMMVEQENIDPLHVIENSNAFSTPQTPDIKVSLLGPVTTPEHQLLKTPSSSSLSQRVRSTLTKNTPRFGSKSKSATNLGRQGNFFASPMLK
# EXPERIMENT SUMMARY: MgcRacGAP GTPase-activating activity inhibitors, confirmation, biochemical, ADP Hunter fluorescence, primary and confirmatory (AID 624330)
# Assay type: functional
The source made the active and inactive calls.

COMPOUND | SYSTEM TESTED | IC50
COc1ccc(CN2CCN(Cc3ccc(C(F)(F)F)cc3)CC2)cc1 | Rac GTPase-activating protein 1 (Homo sapiens) | 99.6 µM (active)
COc1cc2nc(=S)[nH]c(Nc3ccc(NC(C)=O)cc3)c2cc1OC | Rac GTPase-activating protein 1 (Homo sapiens) | 306 µM (active)
COc1ccc(NC(=O)Nc2ccc(N(C)C)cc2)cc1 | Rac GTPase-activating protein 1 (Homo sapiens) | 23.5 µM (active)
COc1ccc2cc(OCC(=O)NNC(=O)Nc3ccc(C(C)=O)cc3)ccc2c1 | Rac GTPase-activating protein 1 (Homo sapiens) | 239 µM (active)
COc1cc(/C=C2\Oc3cc(O)ccc3C2=O)ccc1O | Rac GTPase-activating protein 1 (Homo sapiens) | 26 µM (active)
CC(C(=O)Nc1ccc(F)c(F)c1)N1CCN(C)CC1 (centres undefined) | Rac GTPase-activating protein 1 (Homo sapiens) | 83.1 µM (active)
COc1cc(/C=C/C(=O)OCC(=O)N(C)Cc2ccccc2)ccc1O | Rac GTPase-activating protein 1 (Homo sapiens) | 35.2 µM (active)
COc1cc(CNCc2ccccc2C(F)(F)F)cc(OC)c1 | Rac GTPase-activating protein 1 (Homo sapiens) | 113 µM (active)
Cc1ccc(CCNc2ccc3ccccc3c2)cn1 | Rac GTPase-activating protein 1 (Homo sapiens) | 105 µM (active)
